Origin of values: patent US20220259212A1

Molecular target: Recombinant full-length human IDO1 (Homo sapiens)
Construct: Recombinant full-length human IDO1 with a N-terminal hexahistidine tag; hexahistidine (N); made in house; host or cells: E. coli
Assay: IDO1 enzymatic assay (NFK quantified by LCMS)
Assay type: biochemical
Conditions: 2 nM enzyme, 5 μM L-tryptophan, 30 min pre-incubation, pH6.5; mean if measured multiple times; read-out: hIDO activity (IC50 in nM)
Description: 1) Testing Compounds for IDO Inhibitory Activity in an IDO1 Enzymatic Assay: Recombinant full-length human IDO1 with a N-terminal hexahistidine tag expressed in E. coli and purified to homogeneity is incubated at a final concentration of 2 nM in assay buffer consisting of 37.5 mM phosphate buffer at pH6.5 supplemented with 10 mM ascorbic acid, 0.45 μM methylene blue, 50 U/ml catalase, 0.01% BSA, and 0.01% Tween 20 (protocol modified from Seegers et al, JBS 2014). […]
Reported IC50 values follow for various compounds
The figure you give is taken to be in nM; do not add the unit.

# example entries with known answers
# Compound, Endpoint Unit, IC50
rows = [
    ("COc1ccc(-n2cc([C@H](O)c3c(C4CC4)ncc4cncn34)nn2)cc1Cl [Example 11a]", "nM", 8.17),
    ("COCc1ccc(-n2cc([C@H](O)c3c(C4CC4)ncc4cncn34)nn2)cc1", "nM", 8.36),
    ("COc1ccc(-n2cc([C@H](O)c3c(C4CC4)ncc4cncn34)nn2)cc1Br", "nM", 9.61),
    ("COc1c(F)cc(-n2cc([C@H](O)c3c(C4CC4)ncc4cncn34)nn2)cc1Cl", "nM", 4.5),
    ("COc1ccc(-n2nnc(C(O)c3c(Cl)ccc4cncn34)c2C)cc1 (racemic)", "nM", 2.78),
    ("Cc1c(C(O)c2c(Cl)ccc3cncn23)nnn1-c1ccccc1 (racemic)", "nM", 5.43),
    ("O[C@@H](c1cn(-c2ccc(N3CC4(COC4)C3)cc2)nn1)c1c(C2CC2)ncc2cncn12", "nM", 15),
    ("COc1cc(F)c(-n2cc([C@H](O)c3c(C4CC4)ncc4cncn34)nn2)cc1F", "nM", 6.36),
    ("OC(c1ccc(-c2ccccc2)s1)c1c(Cl)ccc2cncn12 (racemic) [Ref4, reference compound]", "nM", 275),
    ("CCc1ccc2cncn2c1[C@@H](O)c1cn(-c2ccc(OC)cc2)nn1 [Example 34a]", "nM", 1.82),
]

Given the compound OC(c1cn(-c2ccc(OCC3(F)COC3)cc2)nn1)c1c(C2CC2)ncc2cncn12 (racemic) , what is its reported IC50?
33.2

Given the compound `COc1ccc(-n2cc([C@H](O)c3c(C4CC4)ccc4cncn34)nn2)cc1Cl` , what is its reported IC50?
9.85

---

biological target: IDO1 in SKOV3 cells (Homo sapiens, UniProt P14902); construct: SKOV3 cells (NCI, No. 0503405) which upregulate IDO1 after stimulation with IFNγ; host or cells: SKOV3 cells stimulated with IFNγ; test: Cell-based IDO inhibitory activity in IFNγ-stimulated SKOV3 cells (NFK + kynurenine by LCMS); details: IFNγ 50 ng/ml, 200 uM L-tryptophan, 24 hours
Sequence (P14902 whole entry): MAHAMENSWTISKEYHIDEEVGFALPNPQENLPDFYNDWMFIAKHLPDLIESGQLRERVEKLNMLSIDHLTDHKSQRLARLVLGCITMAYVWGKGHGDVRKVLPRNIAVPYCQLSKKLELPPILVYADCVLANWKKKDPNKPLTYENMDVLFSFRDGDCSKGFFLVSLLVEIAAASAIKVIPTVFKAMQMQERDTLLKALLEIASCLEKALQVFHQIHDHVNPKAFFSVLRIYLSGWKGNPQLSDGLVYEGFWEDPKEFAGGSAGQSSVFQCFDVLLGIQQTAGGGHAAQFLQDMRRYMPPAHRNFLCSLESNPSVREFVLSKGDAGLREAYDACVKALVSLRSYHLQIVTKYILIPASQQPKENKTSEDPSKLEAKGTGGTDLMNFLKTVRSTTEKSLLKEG
Lab note: anything with IC50 below 30 nM is marked met; values at 30 nM or higher are marked not met.

See these solved cases before continuing.
# Compound, Class Assignment
data = [
    ("OC(c1cnn(-c2ccccc2)n1)c1c(Cl)ccc2cncn12 (racemic) [Ref3, reference compound]", "not met"),
    ("COc1ccc(-n2cc([C@H](O)c3c(C4CC4)ccc4cncn34)nn2)cc1Cl [Example 8a]", "met"),
    ("COc1cc(F)c(-n2cc([C@H](O)c3c(C4CC4)ncc4cncn34)nn2)cc1Cl [Example 25]", "not met"),
]

Now examine the next entry.
Quick check: does CCc1ccc2cncn2c1[C@@H](O)c1cn(-c2ccc(OC)cc2)nn1 [Example 34a] have IC50 under 30 nM?
met

---

Reported log10 IC50 values follow for various compounds
biological target: Recombinant full-length human IDO1 (Homo sapiens, UniProt P14902); construct: Recombinant full-length human IDO1 with a N-terminal hexahistidine tag; hexahistidine (N); made in house; host or cells: E. coli; test: IDO1 enzymatic assay (NFK quantified by LCMS); type: biochemical; details: 2 nM enzyme, 5 μM L-tryptophan, 30 min pre-incubation, pH6.5; mean if measured multiple times; read-out: hIDO activity (IC50 in nM)
Field: value | Transform: log10 | Quantity: IC50 | Unit: nM

# example entries with known answers
# Compound, log10 IC50
rows = [
    ("O[C@@H](c1cn(-c2ccc(N3CCCC3)cc2)nn1)c1c(C2CC2)ncc2cncn12 [Example 40]", 1.22),
    ("O[C@@H](c1cn(-c2ccc(OCC3COC3)c(F)c2)nn1)c1c(C2CC2)ncc2cncn12 [Example 36]", 0.92),
    ("CNc1ccc(-n2cc([C@H](O)c3c(C4CC4)ncc4cncn34)nn2)cc1 [Example 42]", 1.13),
    ("COc1ccc(-n2cc([C@H](O)c3c(Cl)ccc4cncn34)nn2)cc1 [Example 30]", 0.57),
    ("OC(c1cnn(-c2ccccc2)n1)c1c(Cl)ccc2cncn12 (racemic) [Ref3, reference compound]", 2.21),
]

Give the reported log10 IC50 for Oc1ccc(-n2cc(C(O)c3c(C4CC4)ncc4cncn34)nn2)cc1Cl (racemic) [Example 10] (system: Recombinant full-length human IDO1 (Homo sapiens, UniProt P14902)).
0.98

Give the reported log10 IC50 for CN1CCc2cc(-n3cc([C@H](O)c4c(C5CC5)ncc5cncn45)nn3)ccc21 [Example 47] (system: Recombinant full-length human IDO1 (Homo sapiens, UniProt P14902)).
0.89

Give the reported log10 IC50 for COc1ccc(-n2cc(C(O)c3c(C4CC4)ccc4cncn34)nn2)cc1Cl (racemic) [Example 8] (system: Recombinant full-length human IDO1 (Homo sapiens, UniProt P14902)).
0.87

Give the reported log10 IC50 for COc1ccc(-n2cc([C@H](O)c3c(C4CC4)ncc4cncn34)nn2)c(F)c1Cl [Example 33] (system: Recombinant full-length human IDO1 (Homo sapiens, UniProt P14902)).
0.73

Give the reported log10 IC50 for CN(C)c1ccc(-n2cc([C@H](O)c3c(C4CC4)ncc4cncn34)nn2)cc1 [Example 44] (system: Recombinant full-length human IDO1 (Homo sapiens, UniProt P14902)).
1.16

Give the reported log10 IC50 for OC(c1cn(-c2ccc(OCC3(F)COC3)cc2)nn1)c1c(C2CC2)ccc2cncn12 (racemic) [Example 19] (system: Recombinant full-length human IDO1 (Homo sapiens, UniProt P14902)).
1.14

---

molecular target: IDO1 in SKOV3 cells (Homo sapiens); construct: SKOV3 cells (NCI, No. 0503405) which upregulate IDO1 after stimulation with IFNγ; host or cells: SKOV3 cells stimulated with IFNγ; assay: Cell-based IDO inhibitory activity in IFNγ-stimulated SKOV3 cells (NFK + kynurenine by LCMS); conditions: IFNγ 50 ng/ml, 200 uM L-tryptophan, 24 hours
Reported log10(IC50) values follow for various compounds
Field: value | Transform: log10 | Quantity: IC50 | Unit: nM

# example entries with known answers
# Compound, log10(IC50)
data = [
    ("O[C@@H](c1cn(-c2ccc(OCC3(F)COC3)c(F)c2)nn1)c1c(C2CC2)ncc2cncn12", 1.29),
    ("Cc1c(C(O)c2c(Cl)ccc3cncn23)nnn1-c1ccc(O)c(F)c1 (racemic)", 1.46),
    ("OC(c1ccc(-c2ccccc2)s1)c1c(Cl)ccc2cncn12 (racemic) [Ref4, reference compound]", 3.95),
    ("COc1ccc(-n2cc([C@H](O)c3c(C4CC4)ncc4cncn34)nn2)cc1Cl [Example 11a]", 1.37),
    ("Cc1c(C(O)c2c(C3CC3)ncc3cncn23)nnn1-c1ccc(F)cc1F (racemic)", 2.56),
]

Given the compound CCc1c(C(O)c2c(Cl)ccc3cncn23)nnn1-c1ccc(OC)cc1 (racemic) , what is its reported log10(IC50)?
1.59

Given the compound `O[C@@H](c1cn(-c2cc(F)c(OCC3COC3)cc2F)nn1)c1c(C2CC2)ncc2cncn12` , what is its reported log10(IC50)?
1.44
